Experimental System: T1, human IL-1RAcP on 293T/17-FR cells (human, UniProt Q9NPH3 21-570)
T1 sequence (looked up): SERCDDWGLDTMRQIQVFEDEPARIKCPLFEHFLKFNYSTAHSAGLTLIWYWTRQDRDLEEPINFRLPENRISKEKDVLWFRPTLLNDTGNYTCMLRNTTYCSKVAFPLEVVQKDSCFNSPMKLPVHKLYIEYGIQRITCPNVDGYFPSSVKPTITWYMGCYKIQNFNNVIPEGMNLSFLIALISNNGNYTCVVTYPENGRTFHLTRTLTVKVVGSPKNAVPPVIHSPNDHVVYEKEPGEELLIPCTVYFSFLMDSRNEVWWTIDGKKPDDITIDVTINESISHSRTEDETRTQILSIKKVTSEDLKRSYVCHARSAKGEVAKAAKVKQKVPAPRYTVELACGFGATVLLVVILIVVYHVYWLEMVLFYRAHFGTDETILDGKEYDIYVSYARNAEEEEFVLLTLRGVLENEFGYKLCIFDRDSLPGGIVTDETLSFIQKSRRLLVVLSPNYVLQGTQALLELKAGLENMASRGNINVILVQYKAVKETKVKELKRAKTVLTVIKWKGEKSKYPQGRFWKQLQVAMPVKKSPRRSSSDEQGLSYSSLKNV
Protocol Details: cell-based or functional assay
Field: functional reporter gene assay (% inhibition), 0.2 µg/mL mAb. Provide a value for each of the binders that follow.
Give bare numbers, in %.

The cases that follow already have their functional reporter gene assay (% inhibition), 0.2 µg/mL mAb on record.
# Binder, Scale Unit, Numeric Readout
rows = [
    ("P013.S.01.B.C03 (antibody, V domains shown, rabbit monoclonal antibody; also called P013.A.00133.D11) VH: QSVEESGGRLVTPGTPLTLTCTVSGIDLSNYAMSWVRQAPGKGLEWIGSVISGGSTYYATWARGRFTISKSSTTVDLKMTSLTTEDTATYFCARGCPGYNGDKYTFDLWGPGTLVTVSS VL: AFEMTQTPSSVSEPVGGTVTIKCQASQSIYNYLSWYQQKPGQRPKLLIYRASTLASGVPSRFKGSGSGTEFTLTISGVESADAATYYCQQGATSYDIENPFGGGTEVVVK", "%", 77),
    ("P013.S.01.B.B04 (antibody, V domains shown, rabbit monoclonal antibody; also called P013.A.00086.E02) VH: QSVEESGGRLVTPGTPLTLTCTVSGIDLDNYAMGWVRQAPGKGLEYIGVISSDGFFYDASWAKGRFTISKASSTTVDLKMTGLTPEDTATYFCARDRGTSTGSLDLWGQGTLVTVSS VL: ALVMTQTPASVSEPVGGTVTIKCQASENIGNGLAWYQQKPGQPPNLLIYGASTLASGVPSRFSGSGYGTEFTLTVSDLESGDAATYYCQCTYWNPDYIGGAFGGGTEVVVT", "%", 83),
    ("P013.S.02.B.A01 (antibody, V domains shown, rabbit monoclonal antibody; also called P013.A.00087.A07) VH: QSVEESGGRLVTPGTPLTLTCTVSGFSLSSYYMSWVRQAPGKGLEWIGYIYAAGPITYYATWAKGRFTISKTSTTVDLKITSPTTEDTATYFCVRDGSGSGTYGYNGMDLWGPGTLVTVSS VL: AYDMTQTPASVEAAVGGTVTIKCQASQSISNWLAWYQQKPGQRPKLLIYRASTLASGVSSRFKGSGSGTQFTLTISGVESADAATYYCQQGASTTDVDNVFGGGTEVVVK", "%", 45),
    ("P013.S.01.B.A02 (antibody, V domains shown, rabbit monoclonal antibody; also called P013.A.00003.H11) VH: QSVEESGGRLVTPGTPLTLTCTVSGIDLSSYAMGWVRQAPGKGLEYIGVITSSATTYYASWAKGRFTISKTSSTTVDLRVTSLTTEDTATYFCARGGPGYSTNTHYAFDPWGPGTLVTVSS VL: AFEMTQTPSSVSEPVGGTVTIKCQASQSIYIYLSWYQQKPGQRPKLLIYDASKLASGVPSRFSGSGSGTEFTLTISGVQSDDAATYYCQQGATTYNVDNVFGGGTEVVVK", "%", 94),
    ("P013.S.01.B.E03 (antibody, V domains shown, rabbit monoclonal antibody; also called P013.A.00015.E03) VH: QSLEESGGRLVTPGTPLTLTCTASGFSITNYHISWVRQAPGKGLEWIGYIYAGRDFTYYANWAEGRFTISKTSTTVDLQVTVPTTEDTATYFCARDGGSPNWTLDLWGQGTLVTVSS VL: DVVMTQTPASVSEPVGGTVTINCQASESISDYLSWYQQKPGQPPKLLIYRASTLESGVSSRFKGSGSGTQFTLTISDLESADAATYYCQSNYYDSRGNAFGGGTEVVVK", "%", 63),
    ("P013.S.01.B.F02 (antibody, V domains shown, rabbit monoclonal antibody; also called P013.A.00043.D08) VH: QEQLVESGGGLVQPEGSLTLTCTASGFSFSSNYWMCWVRQAPGKGLEWIACIYTGGSGVTYYASWAKGRFTLSKTSSTTVTLQVTSLTAADTATYFCARDLVVVTSFNLWGQGTLVTVSS VL: ALMMTQTPSPVSAAVGGTVTINCQASEDIYSNLAWYQQKPGQPPKLLIYSASTLASGVPSRFSGSGSGTEFTLTISGVQSDDAATYYCLGVCTDISVDDVYNSFGGGTEVVVK", "%", 59),
]

Go through the list and state functional reporter gene assay (% inhibition), 0.2 µg/mL mAb for each entry.
1. P013.S.02.B.F04 (antibody, V domains shown, rabbit monoclonal antibody; also called P013.A.00109.B02) VH: QEQLVESGGDLVKPEGSLTLTCTASGFSFSSNYWICWVRQAPGKGLEWIACIYTSTDTTYYPNWAKGRFTISKTSSTTVTLQMTSLTAADTATYFCARDLLVVTSFNLWGQGTLVTVSS VL: ALVMTQTPSPVSAAVGGTVTINCQASEDIYSNLAWFQQKPGQPPKLLIYGASTLASGVPSRFSGSGSGTEFTLTISGVQSDDAATYYCLGVCTDISADDLYNTFGGGTEVVVK
2. P013.S.01.B.G06 (antibody, V domains shown, rabbit monoclonal antibody; also called P013.A.00085.H05) VH: QSLEESGGRLVTPGTPLTLTCTASGFTISSYYMSWVRQAPGKGLEWIGGIATDGNTYYANWAKGRFTVSRTSTTVDLKVTSPTAEDTATYFCARGGPAYSRGTHYAMDLWGPGTLVTVSS VL: AYDMTQTPASVEVAVGGTVTIKCQASQSIYIYLAWYQQKPGQRPKQLIYDASKLASGVPSRFSGSGSGTEFTLTISGVESADAATYYCQQGATIWNVDNPFGGGTEVVVK
3. P013.S.01.B.E05 (antibody, V domains shown, rabbit monoclonal antibody; also called P013.A.00086.F02) VH: QSLEESGGDLVKPGASLTLTCTASGISFSSSDFMCWVRQAPGKGLEWIACIYAGSSVSIYYATWAKGRFTISKASSTTVTLQMASLTVADTATYFCARSTGSVGRGFNLWGQGTLVTVSS VL: AQVLTQTPSPVSAAVGGTVTISCQASQSVYNSNHLSWYQQKPGQPPRLLIYSASTLASGVPSRFKGSGSGTQFTLTISGVQSDDAATYYCQGEFSCVSADCIAFGGGTEVVVK
4. P013.S.02.B.D05 (antibody, V domains shown, rabbit monoclonal antibody; also called P013.A.00086.B09) VH: QQQLVESGGGLVKPGASLTLTCKASGFSFSSGYYMCWVRQAPGKGLEWIACIGMGSGKTYYASWAKGRFTISKTSSTTVTLQMTSLTAADTATYFCARKDGSGNEHYNLWGPGTLVTVSS VL: DIVMTQTPASVEAAVGGTVTIRCQASQSISSYLAWYQRKPGQPPKVLIYKASTLASGVSSRFKGSGSGTEYTLTISDLESADAATYYCQQGYASSGVDNVFGGGTEVVVK

Result:
[6, 49, 61, 19]
